The values you see were collected from patent US7205332B2.

- Test system: P388: mouse fibroblast leukemia cell
- method-summary: micro-culture tetrazolium assay, in vitro cytotoxicity on P388
- Assay type: cell-based
- cond: P388 mouse fibroblast leukemia cell; read-out: In vitro cytotoxicities (IC50) P388
For each entry below, report its IC50 value.
Quick reminder: number only, in µg/mL, skip the unit.

## Task Which IC50 value is on record for C[C@H]1[C@@H](CCNC(=O)CC[C@H](NC(=O)CC[C@H]2O[C@@H]3O[C@]4(C)CC[C@H]5[C@H](C)CC[C@@H]([C@H]2C)[C@@]35OO4)C(=O)NCC[C@H]2O[C@@H]3O[C@]4(C)CC[C@H]5[C@H](C)CC[C@@H]([C@H]2C)[C@@]35OO4)O[C@@H]2O[C@]3(C)CC[C@H]4[C@H](C)CC[C@@H]1[C@@]24OO3 [Compound (IVe), deoxoartemisinin trimer] ?
## Result 0.12

## Task Next: C[C@H]1[C@@H](CCSCC[C@H]2O[C@@H]3O[C@@]4(C)CC[C@H]5[C@H](C)CC[C@@H]([C@H]2C)[C@@]35OO4)O[C@@H]2O[C@@]3(C)CC[C@H]4[C@H](C)CC[C@@H]1[C@@]24OO3 [Compound (IVa1)]
## Result 0.4

## Task Next: C[C@H]1[C@@H](CCNC(=O)CC[C@H]2O[C@@H]3O[C@@]4(C)CC[C@H]5[C@H](C)CC[C@@H]([C@H]2C)[C@@]35OO4)O[C@@H]2O[C@@]3(C)CC[C@H]4[C@H](C)CC[C@@H]1[C@@]24OO3 [Compound (IVc), 12-(2′-amidethyl)deoxoartemisinin Dimer]
## Result 10.4

----------
- method-summary: water solubility
- Assay type: physicochemical
- cond: water
experimental-endpoint: solubility (µg/mL)
Quick reminder: number only, in µg/mL, skip the unit.

## Task Which solubility value is on record for "C[C@H]1[C@@H](CCNC(=O)CC[C@H](N)C(=O)NCC[C@H]2O[C@@H]3O[C@@]4(C)CC[C@H]5[C@H](C)CC[C@@H]([C@H]2C)[C@@]35OO4)O[C@@H]2O[C@@]3(C)CC[C@H]4[C@H](C)CC[C@@H]1[C@@]24OO3" ?
## Result 5210

----------
- System: HT-29: human colorectal adenocarcinoma cell
- method-summary: micro-culture tetrazolium assay, in vitro cytotoxicity on HT-29
- Format: cell-based
- cond: read-out: In vitro cytotoxicities (IC50) HT-29
# label = yes if IC50 < 0.1 mg/L else no

## Task # strict comparison: is reported IC50 < 0.1 mg/L? input = CC(=O)O[C@H]1C(=O)[C@@]2(C)[C@H]([C@H](OC(=O)c3ccccc3)[C@]3(O)C[C@H](OC(=O)[C@H](O)[C@@H](NC(=O)c4ccccc4)c4ccccc4)C(C)=C1C3(C)C)[C@]1(OC(C)=O)CO[C@@H]1C[C@@H]2O [Taxol, reference compound]
## Result yes

## Task Next: CO[C@@]12[C@H](COC(N)=O)C3=C(C(=O)C(C)=C(N)C3=O)N1C[C@@H]1N[C@@H]12 [Mitomycin, reference compound]
## Result yes

## Task Next: "C[C@H]1[C@@H](CCSCC[C@H]2O[C@@H]3O[C@@]4(C)CC[C@H]5[C@H](C)CC[C@@H]([C@H]2C)[C@@]35OO4)O[C@@H]2O[C@@]3(C)CC[C@H]4[C@H](C)CC[C@@H]1[C@@]24OO3"
## Result no

## Task Next: "C[C@H]1[C@@H](CCNC(=O)CC[C@H]2O[C@@H]3O[C@@]4(C)CC[C@H]5[C@H](C)CC[C@@H]([C@H]2C)[C@@]35OO4)O[C@@H]2O[C@@]3(C)CC[C@H]4[C@H](C)CC[C@@H]1[C@@]24OO3"
## Result no

## Task Next: "C[C@H]1[C@@H](CCNC(=O)CC[C@H](N)C(=O)NCC[C@H]2O[C@@H]3O[C@@]4(C)CC[C@H]5[C@H](C)CC[C@@H]([C@H]2C)[C@@]35OO4)O[C@@H]2O[C@@]3(C)CC[C@H]4[C@H](C)CC[C@@H]1[C@@]24OO3"
## Result no

## Task Next: "C[C@H]1[C@@H](CCNC(=O)CC[C@H](NC(=O)CC[C@H]2O[C@@H]3O[C@]4(C)CC[C@H]5[C@H](C)CC[C@@H]([C@H]2C)[C@@]35OO4)C(=O)NCC[C@H]2O[C@@H]3O[C@]4(C)CC[C@H]5[C@H](C)CC[C@@H]([C@H]2C)[C@@]35OO4)O[C@@H]2O[C@]3(C)CC[C@H]4[C@H](C)CC[C@@H]1[C@@]24OO3"
## Result yes
